Listed here are compounds together with their documented pIC50.
# Tested on: CCRF-CEM
# PROCEDURE DETAILS: Cytotoxicity against human CCRF-CEM cells after 3 days by XTT assay
# Assay type: functional, cell-based
# TEST SETTINGS: 72 h
pIC50: −log10 of the molar value.

COMPOUND | SYSTEM NAME | RESULT OPERATOR | pIC50
C[C@H](NP(=O)(OC[C@H]1O[C@@H](n2ccc3c(-c4cccs4)ncnc32)[C@H](O)[C@@H]1O)Oc1ccccc1)C(=O)OCc1ccccc1 (stereo partly specified) | CCRF-CEM | = | 5.68
COC(=O)[C@H](C)NP(=O)(OC[C@H]1O[C@@H](n2ccc3c(-c4cccs4)ncnc32)[C@H](O)[C@@H]1O)Oc1ccccc1 (stereo partly specified) | CCRF-CEM | = | 5.07
CCOC(=O)[C@H](C)NP(=O)(OC[C@H]1O[C@@H](n2ccc3c(-c4ccoc4)ncnc32)[C@H](O)[C@@H]1O)Oc1ccccc1 (stereo partly specified) | CCRF-CEM | < | 5.00
C[C@H](NP(=O)(OC[C@H]1O[C@@H](n2ccc3c(-c4cccc5c4oc4ccccc45)ncnc32)[C@H](O)[C@@H]1O)Oc1ccccc1)C(=O)OCc1ccccc1 (stereo partly specified) | CCRF-CEM | < | 5.00
CCOC(=O)[C@H](C)NP(=O)(OC[C@H]1O[C@@H](n2ccc3c(-c4cccs4)ncnc32)[C@H](O)[C@@H]1O)Oc1ccccc1 (stereo partly specified) | CCRF-CEM | < | 5.00
C[C@H](NP(=O)(OC[C@H]1O[C@@H](n2ccc3c(-c4ccco4)ncnc32)[C@H](O)[C@@H]1O)Oc1ccccc1)C(=O)OCc1ccccc1 (stereo partly specified) | CCRF-CEM | = | 5.95
